# relative viability listing for each entry below
- Test system: SW982
- Protocol Text: relative viability vs DMSO control (72 h) (fraction); higher = more viable cells
- Experimental Conditions: 0.00152 µM
// no unit, no text: just the number

Guide cases for relative viability, answers given:
- Smiles Str: "FC(F)(F)c1ccc(CNc2ccc(Cc3c[nH]c4ncc(Cl)cc34)cn2)cn1"
  relative viability: 1.06
- Smiles Str: "CN(C)C[C@@H]1CCn2cc(c3ccccc32)C2=C(C(=O)NC2=O)c2cn(c3ccccc23)CCO1"
  relative viability: 1.04
- Smiles Str: "Cc1cn(-c2cc(NC(=O)c3ccc(C)c(Nc4nccc(-c5cnccn5)n4)c3)cc(C(F)(F)F)c2)cn1"
  relative viability: 1.08

Tell me relative viability of COc1cc(Nc2c(C#N)cnc3cc(OCCCN4CCN(C)CC4)c(OC)cc23)c(Cl)cc1Cl when tested on SW982. 1.08

Tell me relative viability of CC[C@@H]1C(=O)N(C)c2cnc(Nc3ccc(C(=O)N[C@H]4CC[C@H](N5CCN(CC6CC6)CC5)CC4)cc3OC)nc2N1C(C)C when tested on SW982. 1.08

Tell me relative viability of CO[C@H]1C[C@@H]2CC[C@@H](C)[C@@](O)(O2)C(=O)C(=O)N2CCCC[C@H]2C(=O)O[C@H]([C@H](C)C[C@@H]2CC[C@@H](O)[C@H](OC)C2)CC(=O)[C@H](C)/C=C(\C)[C@@H](O)[C@@H](OC)C(=O)[C@H](C)C[C@H](C)/C=C/C=C/C=C/1C when tested on SW982. 0.763

---

- System: SW1353
- Protocol Text: relative viability vs DMSO control (72 h) (fraction); higher = more viable cells
- Experimental Conditions: 0.3704 µM
Endpoint Label: relative viability
// no unit, no text: just the number

- Compound: "N#Cc1ccnc(N2C(=O)CC[C@H]2C(=O)N(c2cncc(F)c2)[C@H](C(=O)NC2CC(F)(F)C2)c2ccccc2Cl)c1 [Ivosidenib]"
  Test System: "SW1353"
  relative viability: 0.98
- Compound: "CCCS(=O)(=O)N[C@H]1C[C@@H](N(C)c2ncnc3[nH]ccc23)C1 [Abrocitinib]"
  Test System: "SW1353"
  relative viability: 0.999

Answer with the recorded relative viability for the compound listed here: NC(=O)c1cccc2cn(-c3ccc([C@@H]4CCCNC4)cc3)nc12 [Niraparib] 0.964

Answer with the recorded relative viability for the compound listed here: CCN(c1cc(-c2ccc(CN3CCOCC3)cc2)cc(C(=O)NCc2c(C)cc(C)[nH]c2=O)c1C)C1CCOCC1 [Tazemetostat] 1.04

Answer with the recorded relative viability for the compound listed here: CO[C@@H]1[C@H](N(C)C(=O)c2ccccc2)C[C@H]2O[C@]1(C)n1c3ccccc3c3c4c(c5c6ccccc6n2c5c31)C(=O)NC4 [Midostaurin] 0.411

Answer with the recorded relative viability for the compound listed here: Cc1nc(Nc2ncc(C(=O)Nc3c(C)cccc3Cl)s2)cc(N2CCN(CCO)CC2)n1 [Dasatinib] 0.46

---

- Tested on: HS729
- Protocol Text: relative viability vs DMSO control (72 h) (fraction); higher = more viable cells
- Experimental Conditions: 0.00051 µM
Endpoint Label: relative viability
// no unit, no text: just the number

Guide cases for relative viability, answers given:
- Molecule: "CN(C)C[C@@H]1CCn2cc(c3ccccc32)C2=C(C(=O)NC2=O)c2cn(c3ccccc23)CCO1 [Ruboxistaurin]"
  Test System: "HS729"
  relative viability: 0.936
- Molecule: "CNC(=O)c1cc(Oc2ccc(NC(=O)Nc3ccc(Cl)c(C(F)(F)F)c3)cc2)ccn1 [Sorafenib]"
  Test System: "HS729"
  relative viability: 0.966
- Molecule: "C[C@@H]1COC(Nc2ccc3ncnc(Nc4ccc(OCc5nccs5)c(Cl)c4)c3c2)=N1 [Varlitinib]"
  Test System: "HS729"
  relative viability: 1.05

Answer with the recorded relative viability for the molecule listed here: Cc1cn(-c2cc(NC(=O)c3ccc(C)c(Nc4nccc(-c5cccnc5)n4)c3)cc(C(F)(F)F)c2)cn1 [Nilotinib] 0.914

Answer with the recorded relative viability for the molecule listed here: CCN(c1cc(-c2ccc(CN3CCOCC3)cc2)cc(C(=O)NCc2c(C)cc(C)[nH]c2=O)c1C)C1CCOCC1 [Tazemetostat] 1.05

Answer with the recorded relative viability for the molecule listed here: CO[C@@H]1[C@H](N(C)C(=O)c2ccccc2)C[C@H]2O[C@]1(C)n1c3ccccc3c3c4c(c5c6ccccc6n2c5c31)C(=O)NC4 [Midostaurin] 0.913

---

- System: A204
- Protocol Text: standardised AUC of viability dose-response curve (72 h) (fraction (0-1)); higher = less growth inhibition (more resistant)
# standardised AUC listing for each entry below
// no unit, no text: just the number

Guide cases for standardised AUC, answers given:
- Smiles Str: "CN(C)C[C@@H]1CCn2cc(c3ccccc32)C2=C(C(=O)NC2=O)c2cn(c3ccccc23)CCO1"
  Value Reported: 0.926
- Smiles Str: "C=CC(=O)Nc1cccc(Nc2nc(Nc3ccc(N4CCN(C(C)=O)CC4)cc3OC)ncc2C(F)(F)F)c1"
  Value Reported: 0.912
- Smiles Str: "CNC(=O)c1cc(Oc2ccc(NC(=O)Nc3ccc(Cl)c(C(F)(F)F)c3)cc2)ccn1"
  Value Reported: 0.756
- Smiles Str: "C[C@H]1Oc2cc(cnc2N)-c2c(nn(C)c2C#N)CN(C)C(=O)c2ccc(F)cc21"
  Value Reported: 0.959
- Smiles Str: "Cc1ccc(C(=O)OCc2ccc([C@@H](CN)C(=O)Nc3ccc4cnccc4c3)cc2)c(C)c1"
  Value Reported: 0.85

Answer with the recorded standardised AUC for the compound listed here: CC[C@@H]1C(=O)N(C)c2cnc(Nc3ccc(C(=O)N[C@H]4CC[C@H](N5CCN(CC6CC6)CC5)CC4)cc3OC)nc2N1C(C)C 0.647

Answer with the recorded standardised AUC for the compound listed here: Cc1cn(-c2cc(NC(=O)c3ccc(C)c(Nc4nccc(-c5cnccn5)n4)c3)cc(C(F)(F)F)c2)cn1 0.894

Answer with the recorded standardised AUC for the compound listed here: COc1cc2ncnc(Nc3ccc(F)c(Cl)c3)c2cc1NC(=O)/C=C/CN1CCCCC1 0.842

Answer with the recorded standardised AUC for the compound listed here: COc1cc2c(Oc3ccc4[nH]c(C)cc4c3F)ccnc2cc1OCC1(N)CC1 0.708

---

# relative viability listing for each entry below
- Test system: SW1353
- Protocol Text: relative viability vs DMSO control (72 h) (fraction); higher = more viable cells
- Experimental Conditions: 0.00457 µM
// no unit, no text: just the number

Answer with the recorded relative viability for the compound listed here: COc1cc2nccc(Oc3ccc(NC(=O)C4(C(=O)Nc5ccc(F)cc5)CC4)cc3)c2cc1OC [Cabozantinib] 0.987

Answer with the recorded relative viability for the compound listed here: COc1cc2c(Oc3ccc4[nH]c(C)cc4c3F)ccnc2cc1OCC1(N)CC1 0.99

Answer with the recorded relative viability for the compound listed here: CCN(CCCOc1ccc2c(Nc3cc(CC(=O)Nc4cccc(F)c4)[nH]n3)ncnc2c1)CCOP(=O)(O)O 0.985

---

- Test system: KHOS-240S
- Protocol Text: relative viability vs DMSO control (72 h) (fraction); higher = more viable cells
- Experimental Conditions: 0.00152 µM
Endpoint Label: relative viability
// no unit, no text: just the number

- Smiles Str: "Cc1cccc(-c2[nH]c(CNc3ccccc3F)nc2-c2ccc3ncnn3c2)n1"
  Endpoint Label: "relative viability"
  Value Reported: 1.03
- Smiles Str: "C=CC(=O)Nc1cccc(Nc2nc(Nc3ccc(N4CCN(C(C)=O)CC4)cc3OC)ncc2C(F)(F)F)c1"
  Endpoint Label: "relative viability"
  Value Reported: 1.07

Answer with the recorded relative viability for the molecule listed here: CCCS(=O)(=O)N[C@H]1C[C@@H](N(C)c2ncnc3[nH]ccc23)C1 1.03

---

# relative viability listing for each entry below
- Test system: A204
- Protocol Text: relative viability vs DMSO control (72 h) (fraction); higher = more viable cells
- Experimental Conditions: 3.333 µM

Guide cases for relative viability, answers given:
- Smiles Str: "NC(=O)c1cnc2[nH]ccc2c1N[C@@H]1[C@@H]2CC3C[C@H]1C[C@@](O)(C3)C2"
  relative viability: 0.705
- Smiles Str: "C[C@@H]1COC(Nc2ccc3ncnc(Nc4ccc(OCc5nccs5)c(Cl)c4)c3c2)=N1"
  relative viability: 0.763
- Smiles Str: "COc1cc2c(Oc3ccc4[nH]c(C)cc4c3F)ccnc2cc1OCC1(N)CC1"
  relative viability: 0.18
- Smiles Str: "C=CC(=O)Nc1cccc(Nc2nc(Nc3ccc(N4CCN(C(C)=O)CC4)cc3OC)ncc2C(F)(F)F)c1"
  relative viability: 0.589
- Smiles Str: "Cc1nc(Nc2ncc(C(=O)Nc3c(C)cccc3Cl)s2)cc(N2CCN(CCO)CC2)n1"
  relative viability: 0.314

Next up:
Answer with the recorded relative viability for the compound listed here: CN(C)C[C@@H]1CCn2cc(c3ccccc32)C2=C(C(=O)NC2=O)c2cn(c3ccccc23)CCO1 0.808

Where these numbers come from: the supplement of paper PMC10883282
